# Activity values compiled below
# System: Rattus norvegicus
# test description: Antiulcer activity in Wistar Rattus norvegicus (rat) assessed as decrease in total acidity of gastric secretions at 0.0289 mM/kg, po administered 1 hr prior to pylorous ligation measured after 19 hr by titRattus norvegicus (rat)ion assay relative to untreated control
# Type: functional, Stomach
# Parameters: scale not given: the % may be the effect or the level left

compound | unit text | Activity
COc1ccc2[nH]c([S+]([O-])Cc3ncc(C)c(OC)c3C)nc2c1 (stereo not drawn) | % | 49.66
COc1ccc2[nH]c([S+]([O-])Cc3nc(OC)c4c(-c5ccccc5)csc4n3)nc2c1 (stereo not drawn) | % | 17.6
[O-][S+](Cc1nc(OCC(F)(F)F)c2c(-c3ccc(Cl)cc3)csc2n1)c1nc2ccccc2[nH]1 (stereo not drawn) | % | 22.34
COc1nc(C[S+]([O-])c2nc3ccccc3[nH]2)nc2sc3c(c12)CCCC3 (stereo not drawn) | % | 24.15
COc1nc(C[S+]([O-])c2nc3ccccc3[nH]2)nc2scc(-c3ccc(Cl)cc3)c12 (stereo not drawn) | % | 32.05
COc1ccc2[nH]c([S+]([O-])Cc3nc(OC)c4c5c(sc4n3)CCCC5)nc2c1 (stereo not drawn) | % | 29.57
[O-][S+](Cc1nc(OCC(F)(F)F)c2c(-c3ccccc3)csc2n1)c1nc2ccccc2[nH]1 (stereo not drawn) | % | 16.93
COc1ccc2[nH]c([S+]([O-])Cc3nc(OC)c4c(-c5ccc(Cl)cc5)csc4n3)nc2c1 (stereo not drawn) | % | 5.41

* * *

# System: Rattus norvegicus
# test description: Antiulcer activity in Wistar Rattus norvegicus (rat) assessed as decrease in total volume of gastric secretions at 0.1158 mM/kg, po administered 1 hr prior to pylorous ligation measured after 19 hr relative to untreated control
# Assay type: functional, Stomach
# Parameters: scale not given: the % may be the effect or the level left
Each entry below carries its reported Activity.
recorded endpoint: Activity (%)

compound | recorded endpoint | value
[O-][S+](Cc1nc(OCC(F)(F)F)c2c(-c3ccc(Cl)cc3)csc2n1)c1nc2ccccc2[nH]1 (stereo not given) | Activity | 60.37
COc1ccc2[nH]c([S+]([O-])Cc3nc(Cl)c4c(-c5ccccc5)csc4n3)nc2c1 (stereo not given) | Activity | 76.32
COc1ccc2[nH]c([S+]([O-])Cc3nc(Cl)c4c5c(sc4n3)CCCC5)nc2c1 (stereo not given) | Activity | 59.84
[O-][S+](Cc1nc(OCC(F)(F)F)c2c3c(sc2n1)CCCC3)c1nc2ccccc2[nH]1 (stereo not given) | Activity | 34.57
COc1ccc2[nH]c([S+]([O-])Cc3nc(OC)c4c5c(sc4n3)CCCC5)nc2c1 (stereo not given) | Activity | 57.71

Origin of values: ChEMBL document CHEMBL3044567
